Origin of measurements: paper PMC9471048

SYSTEM TESTED: human α2C‐adrenoceptor (Homo sapiens, UniProt P18825)
Sequence (P18825 whole entry): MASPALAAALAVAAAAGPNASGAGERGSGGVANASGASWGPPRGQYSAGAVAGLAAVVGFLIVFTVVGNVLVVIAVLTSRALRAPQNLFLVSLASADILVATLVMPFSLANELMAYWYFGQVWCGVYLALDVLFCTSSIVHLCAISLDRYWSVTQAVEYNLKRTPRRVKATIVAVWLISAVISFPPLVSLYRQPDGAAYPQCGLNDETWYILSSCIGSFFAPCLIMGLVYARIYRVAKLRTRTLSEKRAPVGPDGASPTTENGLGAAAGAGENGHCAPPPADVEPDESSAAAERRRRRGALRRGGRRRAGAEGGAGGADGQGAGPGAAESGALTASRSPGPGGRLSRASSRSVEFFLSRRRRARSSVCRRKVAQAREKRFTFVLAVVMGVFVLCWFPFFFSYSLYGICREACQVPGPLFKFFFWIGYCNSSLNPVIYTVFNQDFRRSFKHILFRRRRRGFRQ
DETAILS: CHO‐α2C cells; log KD from 3H‐rauwolscine binding versus CRE‐SPAP log IC50
METRIC NAME: Log efficacy ratio (KD/IC50)

These recorded examples may help you get a feel for the data.
> print(dat)
                                   compound                             system.tested  meas.value
1    CCNCC(O)c1cccc(O)c1 (stereo not shown)  human α2C‐adrenoceptor (Homo sapiens, UniProt P18825)        1.01
2  c1ccc2c(c1)CCCC2C1=NCCN1 (stereo not shown) [Tetrahydrozoline]  human α2C‐adrenoceptor (Homo sapiens, UniProt P18825)        0.40
3                  C1COC(NC(C2CC2)C2CC2)=N1  human α2C‐adrenoceptor (Homo sapiens, UniProt P18825)        0.52
4              C[C@H](N)[C@H](O)c1cccc(O)c1  human α2C‐adrenoceptor (Homo sapiens, UniProt P18825)        1.56
5               c1ccc(C2CC2)c(OCC2=NCCN2)c1  human α2C‐adrenoceptor (Homo sapiens, UniProt P18825)        0.41
6  COc1ccc(OC)c(C(O)C(C)N)c1 (stereo not shown)  human α2C‐adrenoceptor (Homo sapiens, UniProt P18825)        1.01

Then there is this compound:
Item `c1ccc2c(CC3=NCCN3)cccc2c1` ; assay system human α2C‐adrenoceptor (Homo sapiens, UniProt P18825); Log efficacy ratio (KD/IC50) reported as 0.72

---

SYSTEM TESTED: human α2C‐adrenoceptor (Homo sapiens, UniProt P18825)
ASSAY PROTOCOL: ERK1/2‐phosphorylation in CHO‐α2C cells
Type: cell-based
Parameters: expressed in transfected cells; host or cells: CHO-K1 with CRE-SPAP reporter
DETAILS: CHO‐α2C cells; given as negative log EC50, mean ± SEM; read-out: Log EC50, ERK1/2‐phosphorylation (converted)
METRIC NAME: log10(EC50) (log10 of the value in nM)
Short version: log10 scale, EC50, nM.

Below are worked cases with known answers.
> print(dat)
                       compound                             system.tested  meas.value
1   c1ccc(C2CC2)c(OCC2=NCCN2)c1  human α2C‐adrenoceptor (Homo sapiens, UniProt P18825)        1.92
2  C[C@H](N)[C@H](O)c1cccc(O)c1  human α2C‐adrenoceptor (Homo sapiens, UniProt P18825)        2.20
3      C1COC(NC(C2CC2)C2CC2)=N1  human α2C‐adrenoceptor (Homo sapiens, UniProt P18825)        1.69

Kindly note: human α2C‐adrenoceptor (Homo sapiens, UniProt P18825), `c1ccc2c(CC3=NCCN3)cccc2c1` , log10(EC50) value reported: 1.10

The recorded log10(EC50) with human α2C‐adrenoceptor (Homo sapiens, UniProt P18825) for CC(CCc1ccc(O)cc1)NCCc1ccc(O)c(O)c1 (stereo not shown) was 2.88

Given the compound c1ccc2c(c1)CCCC2C1=NCCN1 (stereo not shown) [Tetrahydrozoline] and test system human α2C‐adrenoceptor (Homo sapiens, UniProt P18825), the measured log10(EC50) is 2.10
